Please respond with reported Mammalian Cell Cytotoxicity, HaCaT for every item in the list.
System: Human Keratinocyte (HaCaT) cells
testMethodNotes: LDH cytotoxicity assay, HaCaT
Format: cell-based
details: Table 16, summarized cell toxicity value, 24 hours treatment
Your answer is read as µM, so omit the unit and give the number.

## Input Requested field: Mammalian Cell Cytotoxicity, HaCaT. Item: CCCCCCCCCCCCCCCCCC[N+](C)(C)CCOCCO.[Br-] [Compound 39637_105543]
## Output 6.3

## Input Requested field: Mammalian Cell Cytotoxicity, HaCaT. Item: CCCCCCCCCCCC[N+](C)(C)CCOCCO.[Br-]
## Output 100

## Input Would you mind telling me what Mammalian Cell Cytotoxicity, HaCaT value was observed for CCCCCCCCCCCCCCCCCC[N+](C)(C)CCOCCO.[Br-] [Compound 39637_109466] ?
## Output 6.3
